# credit: ChEMBL document CHEMBL5096205

molecular target: E3 ubiquitin-protein ligase XIAP (Homo sapiens); experiment: Antagonist activity at N-terminal His-tagged XIAP-BIR3 domain (253 to 347 residues)(unknown origin) expressed in Escherichia coli BL21 using AVPIAQKSEK-biotinylated peptide as substrate incubated for 2 hrs by DELFIA assay
Sequence (P98170 whole entry, the tested form may be a part): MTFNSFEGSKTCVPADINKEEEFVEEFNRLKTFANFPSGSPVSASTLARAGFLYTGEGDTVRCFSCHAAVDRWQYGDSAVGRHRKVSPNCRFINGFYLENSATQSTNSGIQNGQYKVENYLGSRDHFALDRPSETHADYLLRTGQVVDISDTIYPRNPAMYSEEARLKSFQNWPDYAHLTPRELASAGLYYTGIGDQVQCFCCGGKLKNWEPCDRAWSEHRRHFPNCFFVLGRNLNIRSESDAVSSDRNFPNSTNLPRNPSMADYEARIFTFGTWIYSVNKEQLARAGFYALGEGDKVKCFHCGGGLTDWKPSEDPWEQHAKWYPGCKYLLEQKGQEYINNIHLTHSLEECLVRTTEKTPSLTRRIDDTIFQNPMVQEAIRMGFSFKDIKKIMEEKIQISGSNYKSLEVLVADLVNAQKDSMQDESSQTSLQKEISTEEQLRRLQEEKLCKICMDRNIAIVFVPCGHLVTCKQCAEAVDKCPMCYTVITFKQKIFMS
property_label: IC50

CN[C@@H](C)C(=O)N[C@@H](CNC(=O)c1cccc(S(=O)(=O)F)c1)C(=O)N1CCC[C@H]1C(=O)NC1Cc2ccccc2C1; > 2500 nM
CN[C@@H](C)C(=O)N[C@@H](CNC(=O)c1cc(S(=O)(=O)F)ccc1OC)C(=O)N1CCCC[C@H]1C(=O)N[C@@H](Cc1ccccc1)C(N)=O; > 2500 nM

Consider the record given below.
Query: Consider the molecule `CN[C@@H](C)C(=O)N[C@@H](CNC(=O)c1cc(S(=O)(=O)F)ccc1OC)C(=O)N1CCC[C@H]1C(=O)N[C@@H]1CCc2c(F)cccc21` and give its measured IC50.
Reply: > 1000 nM

###

target: Baculoviral IAP repeat-containing protein 7 (Homo sapiens, UniProt Q96CA5); assay: Antagonist activity at N-terminal His-tagged wild type ML-IAP BIR domain (63 to 179 residues)(unknown origin) expressed in Escherichia coli BL21 using AVPIAQKSEK-biotinylated peptide as substrate preincubated for 2 hrs with protein followed by substrate addition measured after 2 hrs by DELFIA assay
Sequence (Q96CA5 whole entry, the tested form may be a part): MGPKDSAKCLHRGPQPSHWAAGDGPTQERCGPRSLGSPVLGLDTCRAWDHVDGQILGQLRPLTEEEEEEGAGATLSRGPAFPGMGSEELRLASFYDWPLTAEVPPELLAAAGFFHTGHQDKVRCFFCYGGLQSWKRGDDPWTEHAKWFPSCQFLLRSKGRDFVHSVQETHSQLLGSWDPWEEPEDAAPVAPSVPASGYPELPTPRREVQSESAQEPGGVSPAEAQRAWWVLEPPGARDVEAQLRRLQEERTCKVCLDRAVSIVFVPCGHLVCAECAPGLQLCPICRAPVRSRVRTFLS
property_label: pIC50
For clarity, pIC50 is expressed as the negative log10 of concentration in mol/L.

Query: Consider the compound `CN[C@@H](C)C(=O)N[C@H](C(=O)N1CCC[C@H]1c1nc(C(=O)c2ccc(F)cc2)cs1)C1CCCCC1` and give its measured pIC50.
Reply: 7.82

###

target: Baculoviral IAP repeat-containing protein 3 (Homo sapiens, UniProt Q13489); assay: Antagonist activity at N-terminal His-tagged cIAP2-BIR3 domain (unknown origin) expressed in Escherichia coli BL21 using AVPIAQKSEK-biotinylated peptide as substrate incubated for 2 hrs by DELFIA assay
Sequence (Q13489 whole entry, the tested form may be a part): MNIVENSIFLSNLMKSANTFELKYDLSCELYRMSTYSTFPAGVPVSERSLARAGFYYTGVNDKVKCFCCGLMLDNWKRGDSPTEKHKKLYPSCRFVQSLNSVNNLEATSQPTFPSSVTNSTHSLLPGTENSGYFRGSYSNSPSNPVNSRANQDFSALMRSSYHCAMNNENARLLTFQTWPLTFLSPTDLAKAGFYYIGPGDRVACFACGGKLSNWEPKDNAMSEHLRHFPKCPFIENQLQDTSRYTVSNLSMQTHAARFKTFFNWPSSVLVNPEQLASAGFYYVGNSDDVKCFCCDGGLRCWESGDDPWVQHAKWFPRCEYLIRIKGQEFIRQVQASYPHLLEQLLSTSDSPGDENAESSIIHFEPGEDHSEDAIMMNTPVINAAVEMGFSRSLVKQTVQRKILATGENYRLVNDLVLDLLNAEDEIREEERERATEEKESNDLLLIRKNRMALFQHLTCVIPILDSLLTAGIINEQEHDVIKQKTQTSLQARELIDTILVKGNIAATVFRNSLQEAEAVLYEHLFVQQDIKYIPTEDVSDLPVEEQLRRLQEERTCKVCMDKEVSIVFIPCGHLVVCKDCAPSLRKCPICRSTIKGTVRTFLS
pIC50: −log10 of the molar value.
# key: entry, value: pIC50

CN[C@@H](C)C(=O)N[C@@H](CNC(=O)c1cc(S(=O)(=O)F)ccc1OC)C(=O)N1CCCC[C@H]1C(=O)N[C@@H](Cc1ccccc1)C(N)=O; < 5.70

Consider the record given below.
Query: Query for Baculoviral IAP repeat-containing protein 3 (Homo sapiens, UniProt Q13489): what pIC50 does the record show for `CN[C@@H](C)C(=O)N[C@@H](CNC(=O)c1cccc(S(=O)(=O)F)c1)C(=O)N1CCC[C@H]1C(=O)NC1Cc2ccccc2C1` ?
Reply: < 5.82

###

biological target: Baculoviral IAP repeat-containing protein 2 (Homo sapiens); assay: Antagonist activity at N-terminal His-tagged cIAP1-BIR3 domain (unknown origin) expressed in Escherichia coli BL21 using AVPIAQKSEK-biotinylated peptide as substrate incubated for 2 hrs by DELFIA assay
Sequence (Q13490 whole entry, the tested form may be a part): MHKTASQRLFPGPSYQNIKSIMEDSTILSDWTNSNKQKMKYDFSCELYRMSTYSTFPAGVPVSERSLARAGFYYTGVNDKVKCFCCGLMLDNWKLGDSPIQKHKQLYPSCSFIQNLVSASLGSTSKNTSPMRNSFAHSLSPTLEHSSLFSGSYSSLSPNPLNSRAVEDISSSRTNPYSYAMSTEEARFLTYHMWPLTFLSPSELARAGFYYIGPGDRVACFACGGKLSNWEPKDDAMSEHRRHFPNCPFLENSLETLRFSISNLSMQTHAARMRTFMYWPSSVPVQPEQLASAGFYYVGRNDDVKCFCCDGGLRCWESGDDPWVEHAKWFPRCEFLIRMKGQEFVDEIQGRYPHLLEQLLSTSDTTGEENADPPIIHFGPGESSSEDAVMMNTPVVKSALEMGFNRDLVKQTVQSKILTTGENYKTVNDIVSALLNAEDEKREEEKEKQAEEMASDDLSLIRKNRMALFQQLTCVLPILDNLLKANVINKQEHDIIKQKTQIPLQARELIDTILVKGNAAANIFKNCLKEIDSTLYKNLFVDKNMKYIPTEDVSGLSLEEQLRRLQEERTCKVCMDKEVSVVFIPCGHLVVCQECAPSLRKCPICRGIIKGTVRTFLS
pIC50: −log10 of the molar value.
property_label: pIC50

Query: Consider the compound `CN[C@@H](C)C(=O)N[C@@H](CNC(=O)c1cccc(S(=O)(=O)F)c1)C(=O)N1CCC[C@H]1C(=O)NC1Cc2ccccc2C1` and give its measured pIC50.
Reply: < 6.00
